# experimental_setup: in n-butanol, 298.15 K
measured_attribute: solubility (mole fraction)
I only need the number, thanks.

Any idea what its solubility (mole fraction) is? The molecule is O=[N+]([O-])c1ccc(Oc2ccc([N+](=O)[O-])cc2)cc1 0.000661

====

# experimental_setup: in n-butanol, 293.15 K
measured_attribute: solubility (mole fraction)
# output: bare number, no unit

Give the measured solubility (mole fraction) of O=[N+]([O-])c1ccc(Oc2ccc([N+](=O)[O-])cc2)cc1 . 0.00049

====

# experimental_setup: in n-butanol, 318.15 K
measured_attribute: solubility (mole fraction)
Field format: numeric only.

Using the record for O=[N+]([O-])c1ccc(Oc2ccc([N+](=O)[O-])cc2)cc1 , report its solubility (mole fraction). 0.00183

====

# experimental_setup: in 2-methoxyethanol, 288.15 K
measured_attribute: solubility (mole fraction)
API note: the answer field is a bare number with no unit suffix.

Give the measured solubility (mole fraction) of O=[N+]([O-])c1ccc(Oc2ccc([N+](=O)[O-])cc2)cc1 . 0.00753

====

# experimental_setup: in acetone, 318.15 K
measured_attribute: solubility (mole fraction)
Lab note: record the figure alone, no unit after it.

What does the data say about its solubility (mole fraction)? Entry: O=[N+]([O-])c1ccc(Oc2ccc([N+](=O)[O-])cc2)cc1 0.0484

====

# experimental_setup: in acetic acid, 288.15 K
measured_attribute: solubility (mole fraction)
I'd appreciate a reply containing only the number, no unit.

Given O=[N+]([O-])c1ccc(Oc2ccc([N+](=O)[O-])cc2)cc1 , state its recorded solubility (mole fraction). 0.00347

====

# experimental_setup: in anisole, 283.15 K
measured_attribute: solubility (mole fraction)

// returns reported solubility (mole fraction) for input O=[N+]([O-])c1ccc(Oc2ccc([N+](=O)[O-])cc2)cc1 0.0243

====

# experimental_setup: in 1-methoxy-2-propanol, 298.15 K
measured_attribute: solubility (mole fraction)

Find the recorded solubility (mole fraction) belonging to O=[N+]([O-])c1ccc(Oc2ccc([N+](=O)[O-])cc2)cc1 and report it. 0.00864

====

# experimental_setup: in acetic acid, 293.15 K
measured_attribute: solubility (mole fraction)
Respond with the number and no other words.

I'd like to know its solubility (mole fraction). The compound in question is O=[N+]([O-])c1ccc(Oc2ccc([N+](=O)[O-])cc2)cc1 0.00366

====

# experimental_setup: in ethyl acetate, 323.15 K
measured_attribute: solubility (mole fraction)
# respond with the number and nothing more

Record request: solubility (mole fraction) value, item O=[N+]([O-])c1ccc(Oc2ccc([N+](=O)[O-])cc2)cc1 0.0422

====

# experimental_setup: in acetic acid, 308.15 K
measured_attribute: solubility (mole fraction)
No unit in the answer, please; the number alone is enough.

I'd like to know its solubility (mole fraction). The molecule in question is O=[N+]([O-])c1ccc(Oc2ccc([N+](=O)[O-])cc2)cc1 0.00612

====

# experimental_setup: in acetic acid, 303.15 K
measured_attribute: solubility (mole fraction)

Sample O=[N+]([O-])c1ccc(Oc2ccc([N+](=O)[O-])cc2)cc1 — what was its solubility (mole fraction)? 0.00525

====

# experimental_setup: in acetone, 313.15 K
measured_attribute: solubility (mole fraction)
No unit in the answer, please; the number alone is enough.

What value of solubility (mole fraction) has been reported for the following compound? O=[N+]([O-])c1ccc(Oc2ccc([N+](=O)[O-])cc2)cc1 0.0401
